- TARGET SYSTEM: STAT3 (Homo sapiens, UniProt P40763)
- Construct: This cell line is a clone created by using CRISPR-Cas9 to fuse HiBiT to the 3′ end of STAT3 in HeLa cells; host or cells: STAT3-HiBiT KI HeLa cell line (CRISPR-Cas9 knock-in clone)
- Sequence (P40763 whole entry): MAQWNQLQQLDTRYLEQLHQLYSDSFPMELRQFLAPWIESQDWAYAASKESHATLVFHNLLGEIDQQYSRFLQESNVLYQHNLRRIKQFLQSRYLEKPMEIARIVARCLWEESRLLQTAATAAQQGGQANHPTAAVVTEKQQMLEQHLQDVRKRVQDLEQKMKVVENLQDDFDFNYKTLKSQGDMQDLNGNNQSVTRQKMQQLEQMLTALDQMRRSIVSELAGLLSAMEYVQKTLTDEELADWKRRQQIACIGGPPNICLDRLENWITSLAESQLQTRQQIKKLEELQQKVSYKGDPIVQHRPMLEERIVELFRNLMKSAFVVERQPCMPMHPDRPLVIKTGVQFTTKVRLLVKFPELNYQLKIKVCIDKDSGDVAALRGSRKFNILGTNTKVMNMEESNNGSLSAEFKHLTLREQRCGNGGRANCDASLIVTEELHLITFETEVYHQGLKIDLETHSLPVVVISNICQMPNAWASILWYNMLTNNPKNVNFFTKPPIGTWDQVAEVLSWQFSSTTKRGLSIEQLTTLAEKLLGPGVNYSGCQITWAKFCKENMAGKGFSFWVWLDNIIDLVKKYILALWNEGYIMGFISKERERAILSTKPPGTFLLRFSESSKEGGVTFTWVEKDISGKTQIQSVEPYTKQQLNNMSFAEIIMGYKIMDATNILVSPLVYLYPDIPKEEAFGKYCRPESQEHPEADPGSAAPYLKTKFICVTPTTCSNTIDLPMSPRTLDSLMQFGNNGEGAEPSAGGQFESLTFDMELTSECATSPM
- ASSAY NAME: HiBiT assay, STAT3 degradation in STAT3-HiBiT KI HeLa cells
- Type: cell-based
- EXPERIMENTAL PARAMETERS: 24 h, read-out: STAT3 Degradation (HeLa 24 h HiBit) DC50
QUANTITY NAME: DC50

Cc1ncsc1-c1ccc([C@H](C)NC(=O)[C@@H]2C[C@@H](O)CN2C(=O)[C@@H](NC(=O)CCCCCC(=O)N2CC[C@H]3CC[C@@H](C(=O)N[C@@H](CCC(N)=O)C(=O)NC(c4ccccc4)c4ccccc4)N3C(=O)[C@@H](NC(=O)c3cc4cc(C(=O)P(=O)(O)O)ccc4[nH]3)C2)C(C)(C)C)cc1 [Compound 50] : 100 to 1000 nM
CC(=O)N1CC[C@H]2CC[C@@H](C(=O)N[C@@H](CCC(N)=O)COc3cccc(CCCc4cn([C@H](C(=O)N5C[C@H](O)C[C@H]5C(=O)N[C@@H](C)c5ccc(-c6scnc6C)cc5)C(C)(C)C)nn4)c3Cl)N2C(=O)[C@@H](NC(=O)c2cc3cc(C(=O)P(=O)(O)O)ccc3[nH]2)C1 [Compound 1] : < 10 nM
COCCOCCOCCOC[C@H](NC(=O)[C@@H]1C[C@@H](O)CN1C(=O)[C@@H](n1cc(CCCc2cccc(OC[C@H](CCC(N)=O)NC(=O)[C@@H]3CC[C@@H]4CCN(C(C)=O)C[C@H](NC(=O)c5cc6cc(C(=O)P(=O)(O)O)ccc6[nH]5)C(=O)N43)c2Cl)nn1)C(C)(C)C)c1ccc(-c2scnc2C)cc1 [Compound 35] : 10 to 100 nM
Cc1ncsc1-c1ccc([C@H](C)NC(=O)[C@@H]2C[C@@H](O)CN2C(=O)[C@@H](n2cc(CCCCC(=O)N3CC[C@H]4CC[C@@H](C(=O)N[C@@H](CCC(N)=O)C(=O)NC(c5ccccc5)c5ccccc5)N4C(=O)[C@@H](NC(=O)c4cc5cc(C(=O)P(=O)(O)O)ccc5[nH]4)C3)nn2)C(C)(C)C)cc1 [Compound 13] : 10 to 100 nM
Cc1ncsc1-c1ccc([C@H](C)NC(=O)[C@@H]2C[C@@H](O)CN2C(=O)[C@@H](n2cc(CCCc3cccc(OC[C@H](CCC(N)=O)NC(=O)[C@@H]4CC[C@@H]5CCN(C(=O)CCN6CCN(C)CC6)C[C@H](NC(=O)c6cc7cc(C(=O)P(=O)(O)O)ccc7[nH]6)C(=O)N54)c3Cl)nn2)C(C)(C)C)cc1 [Compound 33] : 10 to 100 nM
CCS(=O)(=O)c1ccc(OC[C@H](CCC(N)=O)NC(=O)[C@@H]2CC[C@@H]3CCN(C(=O)CCCCc4cn([C@H](C(=O)N5C[C@H](O)C[C@H]5C(=O)N[C@@H](C)c5ccc(-c6scnc6C)cc5)C(C)(C)C)nn4)C[C@H](NC(=O)c4cc5cc(C(=O)P(=O)(O)O)ccc5[nH]4)C(=O)N32)cc1 [Compound 34] : 10 to 100 nM

Give the reported value of DC50 for this record: CC(=O)N1CC[C@H]2CC[C@@H](C(=O)N[C@@H](CCC(N)=O)COc3cccc(CCCC(=O)N4CCC([C@@H](C(=O)N5C[C@H](O)C[C@H]5C(=O)N[C@@H](C)c5ccc(-c6scnc6C)cc5)n5cc(C6CC6)nn5)CC4)c3Cl)N2C(=O)[C@@H](NC(=O)c2cc3cc(C(=O)P(=O)(O)O)ccc3[nH]2)C1 [Compound 37] 100 to 1000 nM

Specify DC50 for CCS(=O)(=O)c1ccc(CNC(=O)[C@H](CCC(N)=O)NC(=O)[C@@H]2CC[C@@H]3CCN(C(=O)CCCCCc4cn([C@H](C(=O)N5C[C@H](O)C[C@H]5C(=O)N[C@@H](COCCOCCOCCOC)c5ccc(-c6scnc6C)cc5)C(C)(C)C)nn4)C[C@H](NC(=O)c4cc5cc(C(=O)P(=O)(O)O)ccc5[nH]4)C(=O)N32)cc1 [Compound 45] and stop. 10 to 100 nM

Specify reported DC50 for the compound shown: CCS(=O)(=O)c1ccc(CNC(=O)[C@H](CCC(N)=O)NC(=O)[C@@H]2CC[C@@H]3CCN(C(=O)CCCCc4cn([C@@H](C(=O)N5C[C@H](O)C[C@H]5C(=O)N[C@H](C)c5ccc(-c6scnc6C)cc5)C5CCCCC5)nn4)C[C@H](NC(=O)c4cc5cc(C(=O)P(=O)(O)O)ccc5[nH]4)C(=O)N32)cc1 [Compound 20] < 10 nM

Supply recorded DC50 for CCS(=O)(=O)c1ccc(CNC(=O)[C@H](CCC(N)=O)NC(=O)[C@@H]2CC[C@@H]3CCN(C(=O)CCCCc4cn([C@H](C(=O)N5C[C@H](O)C[C@H]5C(=O)N[C@@H](CN5CCOCC5)c5ccc(-c6scnc6C)cc5)C(C)(C)C)nn4)C[C@H](NC(=O)c4cc5cc(C(=O)P(=O)(O)O)ccc5[nH]4)C(=O)N32)cc1 [Compound 16] here. 10 to 100 nM

Consider the compound COCCOCCOCCOCCN1CC[C@H]2CC[C@@H](C(=O)N[C@@H](CCC(N)=O)COc3cccc(CCCc4cn([C@H](C(=O)N5C[C@H](O)C[C@H]5C(=O)N[C@@H](C)c5ccc(-c6scnc6C)cc5)C(C)(C)C)nn4)c3Cl)N2C(=O)[C@@H](NC(=O)c2cc3cc(C(=O)P(=O)(O)O)ccc3[nH]2)C1 [Compound 31] . State its measured DC50. 10 to 100 nM

Give reported DC50 value for CC(=O)N1CC[C@H]2CC[C@@H](C(=O)N[C@@H](CCC(N)=O)COc3cccc(CCCc4cn([C@H](C(=O)N5C[C@H](O)C[C@H]5C(=O)N[C@@H](C)c5ccc(-c6scnc6C)cc5)C(C)(C)C)nn4)c3Cl)N2C(=O)[C@@H](NC(=O)c2cc3cc(C(F)(F)P(=O)(O)O)ccc3s2)C1 [Compound 44] < 10 nM

----------
- Tested on: SU-DHL-1 cells
- ASSAY NAME: CellTiter-Glo 2.0 cell viability assay, SU-DHL-1
- Type: cell-based
- EXPERIMENTAL PARAMETERS: Homo sapiens, 96 h, 4 days
- Description: For example, cell viability may be determined by CellTiter-Glo 2.0 Cell Viability Assay. […] At the end of treatment, CellTiter-Glo 2.0 is added to the wells and luminescence is acquired on TECAN SPARK plate reader. […] IC50 values are calculated using a nonlinear regression analysis of the mean±SD from triplicate. SU-DHL-1 and SUP-M2 cell viability was determined by CellTiter-Glo 2.0 Cell Viability Assay (Promega). […]
QUANTITY NAME: IC50

Reference set, count: 2
Cc1ncsc1-c1ccc([C@H](C)NC(=O)[C@@H]2C[C@@H](O)CN2C(=O)[C@@H](n2cc(CCC(=O)N3CC[C@H]4CC[C@@H](C(=O)N[C@@H](CCC(N)=O)C(=O)NCc5cccc(Cl)c5)N4C(=O)[C@@H](NC(=O)c4cc5cc(C(=O)P(=O)(O)O)ccc5[nH]4)C3)nn2)C(C)(C)C)cc1 : 100 to 1000 nM
Cc1ncsc1-c1ccc([C@H](C)NC(=O)[C@@H]2C[C@@H](O)CN2C(=O)[C@@H](n2cc(CCc3cccc(OC[C@H](CCC(N)=O)NC(=O)[C@@H]4CC[C@@H]5CCN(C(=O)C(C)C)C[C@H](NC(=O)c6cc7cc(C(=O)P(=O)(O)O)ccc7[nH]6)C(=O)N54)c3Cl)nn2)C(C)(C)C)cc1 : 10 to 100 nM

Return reported IC50. Input molecule: `CC(=O)N1CC[C@H]2CC[C@@H](C(=O)N[C@@H](CCC(N)=O)COc3cccc(CCCCN4CCC([C@@H](C(=O)N5C[C@H](O)C[C@H]5C(=O)N[C@@H](C)c5ccc(-c6scnc6C)cc5)n5cc(C6CC6)nn5)CC4)c3Cl)N2C(=O)[C@@H](NC(=O)c2cc3cc(C(=O)P(=O)(O)O)ccc3[nH]2)C1` > 1000 nM

# return recorded IC50 for entry `CC(=O)N1CC[C@H]2CC[C@@H](C(=O)N[C@@H](CCC(N)=O)COc3cccc(CCCc4cn([C@H](C(=O)N5C[C@H](O)C[C@H]5C(=O)N[C@@H](C)c5ccc(-c6scnc6C)cc5)C5CCCCC5)nn4)c3Cl)N2C(=O)[C@@H](NC(=O)c2cc3cc(C(=O)P(=O)(O)O)ccc3[nH]2)C1` < 10 nM

Tell me IC50 reported for `CC(=O)N1CC[C@H]2CC[C@@H](C(=O)N[C@@H](CCC(N)=O)COc3cccc(CCCc4cn([C@H](C(=O)N5C[C@H](O)C[C@H]5C(=O)N[C@@H](CO)c5ccc(-c6scnc6C)cc5)C(C)(C)C)nn4)c3Cl)N2C(=O)[C@@H](NC(=O)c2cc3cc(C(=O)P(=O)(O)O)ccc3[nH]2)C1` < 10 nM
